Overview of reported Ratio of sensitivity across a group of molecules:
Test system: Arabidopsis thaliana (K31-4-2) transformed with a Kasalath-derived CYP72A31 gene
Assay: Drug sensitivity test on drug-containing MS medium, Arabidopsis thaliana transformed with Kasalath-derived CYP72A31 gene
Assay type: in vivo
Conditions: maximum drug concentration for 80% or more emerging of true leaves, K31-4-2 / NT, day 14
Experimental: A bag of mixed salts for Murashige-Skoog (MS) medium (manufactured by Wako Pure Chemical Industries, Ltd.) 20 g of sucrose, 3 mg of thiamin hydrochloride, 5 mg of nicotinic acid, and 0.5 mg of pyridoxine hydrochloride were dissolved in distilled water, and filled up to 1 L with distilled water. After pH adjustment to 5.8 to 6.3 with 1 M KOH, 3 g of Gelrite was added to the solution, and dissolved using a microwave. After that, the mixture was autoclaved to prepare a sterile MS medium. […]
Property label: Ratio of sensitivity

1) CCOC(=O)c1cnn(C)c1S(=O)(=O)NC(=O)Nc1nc(OC)cc(OC)n1 ... >9
2) COc1cc(OC)nc(NC(=O)NS(=O)(=O)c2c(Cl)nc3ccccn23)n1 ... >85
3) COc1cc(OC)nc(NC(=O)NS(=O)(=O)c2ncccc2C(=O)N(C)C)n1 ... 27
4) CON=C(C)c1cccc(Oc2nc(OC)cc(OC)n2)c1C(=O)O ... 27
5) CCCc1ccc2nc(Cl)c(S(=O)(=O)NC(=O)Nc3nc(OC)cc(OC)n3)n2n1 ... >9
6) COc1cc(OC)nc(Oc2cccc(Oc3nc(OC)cc(OC)n3)c2C(=O)O)n1 [BS, bispyribac sodium] ... >80
